Reference for the values: the supplement of paper PMC12076712

Kindly state pIC50 for each of the entries shown.
Tested Target: CAMKK2 (UniProt Q96RR4)
Sequence (Q96RR4 whole entry, looked up): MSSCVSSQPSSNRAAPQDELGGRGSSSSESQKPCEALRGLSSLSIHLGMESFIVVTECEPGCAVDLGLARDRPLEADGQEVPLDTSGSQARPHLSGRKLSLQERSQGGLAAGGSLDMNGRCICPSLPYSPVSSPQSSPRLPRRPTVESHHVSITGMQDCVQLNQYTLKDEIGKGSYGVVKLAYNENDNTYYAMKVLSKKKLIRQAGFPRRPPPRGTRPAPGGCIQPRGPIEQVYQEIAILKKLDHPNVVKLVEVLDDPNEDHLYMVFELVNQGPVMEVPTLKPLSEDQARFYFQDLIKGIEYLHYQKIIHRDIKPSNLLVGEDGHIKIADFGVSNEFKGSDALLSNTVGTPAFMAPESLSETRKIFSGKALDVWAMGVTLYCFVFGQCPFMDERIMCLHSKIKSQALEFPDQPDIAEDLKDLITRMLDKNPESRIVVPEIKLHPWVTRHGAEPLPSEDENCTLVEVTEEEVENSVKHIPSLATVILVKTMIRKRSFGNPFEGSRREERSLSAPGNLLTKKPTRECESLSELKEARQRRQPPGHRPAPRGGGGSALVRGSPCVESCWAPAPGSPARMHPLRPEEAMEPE
Measurement Description: pIC50, kinobeads binding competition
Condition Notes: cell material: Lysate mix

## Input For `CCNC(=O)c1cc(Nc2cc(C)[nH]n2)nc(N2CCN(Cc3ccc(S(=O)(=O)F)cc3)CC2)n1` , write its pIC50.
## Output < 4.52

## Input For `C#CCNC(=O)c1cc(Nc2cc(C)[nH]n2)nc(N2CCN(Cc3ccc(S(=O)(=O)F)cc3)CC2)n1` , write its pIC50.
## Output < 4.52

## Input For Cc1cc(Nc2cc(C(=O)NCCNC(=O)OC3CC/C=C/CCC3)nc(N3CCN(Cc4ccc(S(=O)(=O)F)cc4)CC3)n2)n[nH]1 (stereo not drawn) , write its pIC50.
## Output < 4.52

* * *

Tested Target: MAP4K3 (UniProt Q8IVH8)
Sequence (Q8IVH8 whole entry): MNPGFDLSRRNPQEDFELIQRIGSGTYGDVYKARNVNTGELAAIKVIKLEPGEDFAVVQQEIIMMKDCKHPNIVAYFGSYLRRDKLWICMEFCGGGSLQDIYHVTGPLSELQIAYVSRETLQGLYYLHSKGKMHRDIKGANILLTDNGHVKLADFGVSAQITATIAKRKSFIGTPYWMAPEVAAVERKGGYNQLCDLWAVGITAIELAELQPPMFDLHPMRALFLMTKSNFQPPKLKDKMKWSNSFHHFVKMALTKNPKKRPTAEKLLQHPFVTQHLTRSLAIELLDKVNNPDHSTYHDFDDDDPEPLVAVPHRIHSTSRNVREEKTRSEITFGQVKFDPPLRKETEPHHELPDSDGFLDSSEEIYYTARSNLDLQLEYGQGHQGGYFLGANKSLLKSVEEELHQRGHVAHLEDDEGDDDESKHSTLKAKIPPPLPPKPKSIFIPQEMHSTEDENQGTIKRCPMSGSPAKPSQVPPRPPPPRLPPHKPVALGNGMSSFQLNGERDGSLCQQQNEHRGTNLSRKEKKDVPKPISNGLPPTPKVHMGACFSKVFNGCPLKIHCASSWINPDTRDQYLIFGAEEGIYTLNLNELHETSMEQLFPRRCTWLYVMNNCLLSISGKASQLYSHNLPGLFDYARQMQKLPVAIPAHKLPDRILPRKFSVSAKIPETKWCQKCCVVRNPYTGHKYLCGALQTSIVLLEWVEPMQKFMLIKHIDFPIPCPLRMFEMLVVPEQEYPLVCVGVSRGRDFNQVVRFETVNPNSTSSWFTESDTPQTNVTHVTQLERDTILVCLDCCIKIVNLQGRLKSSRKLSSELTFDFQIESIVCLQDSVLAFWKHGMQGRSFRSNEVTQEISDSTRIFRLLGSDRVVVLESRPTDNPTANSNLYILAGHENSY
Measurement Description: pIC50, kinobeads binding competition
Condition Notes: cell material: Lysate mix
Measured Attribute: pIC50

## Input Provide pIC50, system MAP4K3 (UniProt Q8IVH8), entry `CCNC(=O)c1cc(Nc2cc(C)[nH]n2)nc(N2CCN(Cc3ccc(S(=O)(=O)F)cc3)CC2)n1`
## Output < 4.52

## Input Provide pIC50, system MAP4K3 (UniProt Q8IVH8), entry O=C(NCCNC(=O)c1cc(Nc2cc(C3CC3)[nH]n2)nc(N2CCN(Cc3ccc(S(=O)(=O)F)cc3)CC2)n1)OC1CC/C=C/CCC1 (stereo not drawn)
## Output < 4.52

## Input Provide pIC50, system MAP4K3 (UniProt Q8IVH8), entry Cc1cc(Nc2cc(C(=O)NCCNC(=O)OC3CC/C=C/CCC3)nc(N3CCN(Cc4ccc(S(=O)(=O)F)cc4)CC3)n2)n[nH]1 (stereo not drawn)
## Output < 4.52

* * *

Kindly state pIC50 for each of the entries shown.
Tested Target: UniProt Q00536
Sequence (Q00536 whole entry): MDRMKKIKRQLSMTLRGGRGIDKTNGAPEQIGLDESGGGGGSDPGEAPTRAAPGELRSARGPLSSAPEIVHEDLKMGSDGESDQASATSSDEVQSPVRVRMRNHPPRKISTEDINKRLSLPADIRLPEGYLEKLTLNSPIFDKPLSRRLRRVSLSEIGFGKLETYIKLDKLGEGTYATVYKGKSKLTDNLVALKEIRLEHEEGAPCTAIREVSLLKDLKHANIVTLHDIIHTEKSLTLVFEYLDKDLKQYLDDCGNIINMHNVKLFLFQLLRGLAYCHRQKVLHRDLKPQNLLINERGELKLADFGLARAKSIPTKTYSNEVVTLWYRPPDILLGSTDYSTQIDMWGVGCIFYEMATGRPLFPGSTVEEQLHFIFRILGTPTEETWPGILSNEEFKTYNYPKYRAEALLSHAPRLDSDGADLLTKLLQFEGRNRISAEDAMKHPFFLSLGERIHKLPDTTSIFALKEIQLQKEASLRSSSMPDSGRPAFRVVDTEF
Measurement Description: pIC50, kinobeads binding competition
Condition Notes: cell material: Lysate mix

## Input For `C#CCNC(=O)c1cc(Nc2cc(C)[nH]n2)nc(N2CCN(Cc3ccc(S(=O)(=O)F)cc3)CC2)n1` , write its pIC50.
## Output < 4.52

## Input For O=C(NCCNC(=O)c1cc(Nc2cc(C3CC3)[nH]n2)nc(N2CCN(Cc3ccc(S(=O)(=O)F)cc3)CC2)n1)OC1CC/C=C/CCC1 (stereo not drawn) , write its pIC50.
## Output < 4.52

## Input For Cc1cc(Nc2cc(C(=O)NCCNC(=O)OC3CC/C=C/CCC3)nc(N3CCN(Cc4ccc(S(=O)(=O)F)cc4)CC3)n2)n[nH]1 (stereo not drawn) , write its pIC50.
## Output < 4.52

* * *

Kindly state pIC50 for each of the entries shown.
Tested Target: UniProtKB P21709
Sequence (P21709 whole entry): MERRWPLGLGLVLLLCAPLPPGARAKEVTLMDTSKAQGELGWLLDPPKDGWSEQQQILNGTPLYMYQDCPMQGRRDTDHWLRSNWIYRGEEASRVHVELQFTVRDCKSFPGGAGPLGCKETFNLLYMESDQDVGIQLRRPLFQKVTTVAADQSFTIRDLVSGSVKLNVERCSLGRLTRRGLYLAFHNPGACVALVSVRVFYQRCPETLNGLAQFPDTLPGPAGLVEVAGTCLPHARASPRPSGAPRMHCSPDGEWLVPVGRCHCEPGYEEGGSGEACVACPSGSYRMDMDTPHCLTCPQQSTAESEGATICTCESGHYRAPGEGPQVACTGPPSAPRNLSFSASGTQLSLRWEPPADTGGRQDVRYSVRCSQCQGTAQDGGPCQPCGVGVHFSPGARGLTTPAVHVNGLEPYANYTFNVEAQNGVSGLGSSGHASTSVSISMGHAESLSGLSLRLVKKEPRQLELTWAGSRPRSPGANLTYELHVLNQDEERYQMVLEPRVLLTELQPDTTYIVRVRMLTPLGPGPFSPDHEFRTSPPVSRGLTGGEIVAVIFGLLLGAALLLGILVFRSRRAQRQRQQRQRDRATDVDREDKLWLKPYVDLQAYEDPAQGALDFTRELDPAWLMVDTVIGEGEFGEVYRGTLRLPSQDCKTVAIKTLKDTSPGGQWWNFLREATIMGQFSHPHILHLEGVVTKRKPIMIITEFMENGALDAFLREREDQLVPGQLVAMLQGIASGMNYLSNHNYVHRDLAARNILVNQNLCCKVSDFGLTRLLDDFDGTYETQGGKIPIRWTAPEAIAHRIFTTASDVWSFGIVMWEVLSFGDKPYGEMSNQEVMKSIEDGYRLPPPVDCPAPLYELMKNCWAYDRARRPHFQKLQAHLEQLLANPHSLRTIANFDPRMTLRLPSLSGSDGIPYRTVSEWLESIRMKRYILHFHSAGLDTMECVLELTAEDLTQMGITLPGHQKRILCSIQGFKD
Measurement Description: pIC50, kinobeads binding competition
Condition Notes: cell material: Lysate mix

## Input For `CCNC(=O)c1cc(Nc2cc(C)[nH]n2)nc(N2CCN(Cc3ccc(S(=O)(=O)F)cc3)CC2)n1` , write its pIC50.
## Output < 4.52

## Input For Cc1cc(Nc2cc(C(=O)NCCNC(=O)OC3CC/C=C/CCC3)nc(N3CCN(Cc4ccc(S(=O)(=O)F)cc4)CC3)n2)n[nH]1 (stereo not drawn) , write its pIC50.
## Output < 4.52

## Input For `C#CCNC(=O)c1cc(Nc2cc(C)[nH]n2)nc(N2CCN(Cc3ccc(S(=O)(=O)F)cc3)CC2)n1` , write its pIC50.
## Output < 4.52

* * *

Tested Target: CDK9 (UniProt P50750)
Sequence (P50750 whole entry): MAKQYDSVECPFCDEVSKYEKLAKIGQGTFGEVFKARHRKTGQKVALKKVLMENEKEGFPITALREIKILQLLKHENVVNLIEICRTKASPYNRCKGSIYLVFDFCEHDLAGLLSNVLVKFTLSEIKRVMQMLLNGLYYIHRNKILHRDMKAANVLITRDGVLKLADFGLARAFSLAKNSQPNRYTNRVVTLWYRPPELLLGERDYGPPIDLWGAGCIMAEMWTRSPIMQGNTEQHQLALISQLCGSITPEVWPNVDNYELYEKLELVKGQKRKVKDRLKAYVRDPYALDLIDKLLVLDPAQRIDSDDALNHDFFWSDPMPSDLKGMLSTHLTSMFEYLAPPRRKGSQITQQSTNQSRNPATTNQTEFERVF
Measurement Description: pIC50, kinobeads binding competition
Condition Notes: cell material: Lysate mix
Kindly state pIC50 for each of the entries shown.

## Input For O=C(NCCNC(=O)c1cc(Nc2cc(C3CC3)[nH]n2)nc(N2CCN(Cc3ccc(S(=O)(=O)F)cc3)CC2)n1)OC1CC/C=C/CCC1 (stereo not drawn) , write its pIC50.
## Output < 4.52

## Input For Cc1cc(Nc2cc(C(=O)NCCNC(=O)OC3CC/C=C/CCC3)nc(N3CCN(Cc4ccc(S(=O)(=O)F)cc4)CC3)n2)n[nH]1 (stereo not drawn) , write its pIC50.
## Output < 4.52

## Input For `CCNC(=O)c1cc(Nc2cc(C)[nH]n2)nc(N2CCN(Cc3ccc(S(=O)(=O)F)cc3)CC2)n1` , write its pIC50.
## Output < 4.52

* * *

Kindly state pIC50 for each of the entries shown.
Tested Target: UniProt Q13164
Sequence (Q13164 whole entry, looked up): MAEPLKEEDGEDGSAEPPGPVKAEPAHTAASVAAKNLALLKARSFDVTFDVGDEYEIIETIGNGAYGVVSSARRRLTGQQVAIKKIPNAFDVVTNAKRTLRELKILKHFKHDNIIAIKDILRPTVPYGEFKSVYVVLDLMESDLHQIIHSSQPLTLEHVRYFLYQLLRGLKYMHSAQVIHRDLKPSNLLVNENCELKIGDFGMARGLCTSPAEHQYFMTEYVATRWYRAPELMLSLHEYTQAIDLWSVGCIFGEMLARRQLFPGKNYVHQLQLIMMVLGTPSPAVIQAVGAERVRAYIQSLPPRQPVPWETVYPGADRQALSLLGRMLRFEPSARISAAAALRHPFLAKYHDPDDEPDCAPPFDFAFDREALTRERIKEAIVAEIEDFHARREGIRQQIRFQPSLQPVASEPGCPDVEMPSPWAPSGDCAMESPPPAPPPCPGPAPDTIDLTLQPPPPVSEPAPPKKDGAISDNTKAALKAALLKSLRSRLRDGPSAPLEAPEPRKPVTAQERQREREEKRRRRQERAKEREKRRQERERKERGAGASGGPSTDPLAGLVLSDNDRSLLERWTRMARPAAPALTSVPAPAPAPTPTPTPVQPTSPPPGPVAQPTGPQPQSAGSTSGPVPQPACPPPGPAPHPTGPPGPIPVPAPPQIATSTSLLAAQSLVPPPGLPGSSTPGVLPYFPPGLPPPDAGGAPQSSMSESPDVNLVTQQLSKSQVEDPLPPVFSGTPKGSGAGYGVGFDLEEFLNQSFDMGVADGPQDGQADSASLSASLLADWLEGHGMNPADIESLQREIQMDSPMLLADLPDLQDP
Measurement Description: pIC50, kinobeads binding competition
Condition Notes: cell material: Lysate mix

## Input For O=C(NCCNC(=O)c1cc(Nc2cc(C3CC3)[nH]n2)nc(N2CCN(Cc3ccc(S(=O)(=O)F)cc3)CC2)n1)OC1CC/C=C/CCC1 (stereo not drawn) , write its pIC50.
## Output < 4.52

## Input For Cc1cc(Nc2cc(C(=O)NCCNC(=O)OC3CC/C=C/CCC3)nc(N3CCN(Cc4ccc(S(=O)(=O)F)cc4)CC3)n2)n[nH]1 (stereo not drawn) , write its pIC50.
## Output < 4.52

## Input For `C#CCNC(=O)c1cc(Nc2cc(C)[nH]n2)nc(N2CCN(Cc3ccc(S(=O)(=O)F)cc3)CC2)n1` , write its pIC50.
## Output < 4.52
